# Lookup of reported Activity keyed by entry
Test system: Aorta
experiment-notes: Vasorelaxant activity against KCl-induced contraction in endothelium-denuded Sprague-Dawley rat thoracic aorta
Format: functional, tissue-based
Set-up: scale not given: the % may be the effect or the level left

{"test-smiles": "O=c1c(O)c(-c2ccc(O)cc2)oc2ccccc12", "measured-target": "Aorta", "Activity [%]": 92}
{"test-smiles": "O=c1c(O)c(-c2ccc(O)c(O)c2)oc2ccccc12", "measured-target": "Aorta", "Activity [%]": 100}
{"test-smiles": "COc1cc(-c2oc3ccccc3c(=O)c2O)ccc1O", "measured-target": "Aorta", "Activity [%]": 93}
{"test-smiles": "COc1cccc(-c2oc3ccccc3c(=O)c2O)c1", "measured-target": "Aorta", "Activity [%]": 86}
